The measurements presented in this section are drawn from BigSolDB 2.1.

# recorded.conditions: in dichloromethane, 288.15 K
outcome.measure: solubility (mole fraction)
One number for each entry.

Task: Suppose we examine the compound Cl.NC1CCSC1=O (racemic) ; what solubility (mole fraction) value has been reported?
Result: 0.000114

###

# recorded.conditions: in 1,4-dioxane, 313.15 K
outcome.measure: solubility (mole fraction)
Give bare numbers.

Task: Suppose we examine the molecule Cl.NC1CCSC1=O (racemic) ; what solubility (mole fraction) value has been reported?
Result: 0.000872

###

# recorded.conditions: in acetonitrile, 303.15 K
outcome.measure: solubility (mole fraction)
Give bare numbers.

Task: Suppose we examine the compound Cl.NC1CCSC1=O (racemic) ; what solubility (mole fraction) value has been reported?
Result: 0.000135

###

# recorded.conditions: in ethanol, 283.15 K
outcome.measure: solubility (mole fraction)

Task: Suppose we examine the molecule Cl.NC1CCSC1=O (racemic) ; what solubility (mole fraction) value has been reported?
Result: 0.00319

###

# recorded.conditions: in dichloromethane, 303.15 K
outcome.measure: solubility (mole fraction)
Answers are plain numbers.

Task: Suppose we examine the compound Cl.NC1CCSC1=O (racemic) ; what solubility (mole fraction) value has been reported?
Result: 0.000356

###

# recorded.conditions: in 1,4-dioxane, 303.15 K
outcome.measure: solubility (mole fraction)
One number for each entry.

Task: Suppose we examine the compound Cl.NC1CCSC1=O (racemic) ; what solubility (mole fraction) value has been reported?
Result: 0.000691

###

# recorded.conditions: in acetone, 293.15 K
outcome.measure: solubility (mole fraction)
Answers are plain numbers.

Task: Suppose we examine the compound Cl.NC1CCSC1=O (racemic) ; what solubility (mole fraction) value has been reported?
Result: 0.000202

###

# recorded.conditions: in methanol, 313.15 K
outcome.measure: solubility (mole fraction)
Give bare numbers.

Task: Suppose we examine the molecule Cl.NC1CCSC1=O (racemic) ; what solubility (mole fraction) value has been reported?
Result: 0.0272

###

# recorded.conditions: in ethanol, 323.15 K
outcome.measure: solubility (mole fraction)
Numbers only.

Task: Suppose we examine the compound Cl.NC1CCSC1=O (racemic) ; what solubility (mole fraction) value has been reported?
Result: 0.00766

###

# recorded.conditions: in ethyl acetate, 293.15 K
outcome.measure: solubility (mole fraction)
Answers are plain numbers.

Task: Suppose we examine the compound Cl.NC1CCSC1=O (racemic) ; what solubility (mole fraction) value has been reported?
Result: 0.000281

###

# recorded.conditions: in acetone, 323.15 K
outcome.measure: solubility (mole fraction)

Task: Suppose we examine the compound Cl.NC1CCSC1=O (racemic) ; what solubility (mole fraction) value has been reported?
Result: 0.000439

###

# recorded.conditions: in isopropanol, 283.15 K
outcome.measure: solubility (mole fraction)
Numbers only.

Task: Suppose we examine the molecule Cl.NC1CCSC1=O (racemic) ; what solubility (mole fraction) value has been reported?
Result: 0.000521

###

# recorded.conditions: in isopropanol, 303.15 K
outcome.measure: solubility (mole fraction)
Numbers only.

Task: Suppose we examine the compound Cl.NC1CCSC1=O (racemic) ; what solubility (mole fraction) value has been reported?
Result: 0.00116

###

# recorded.conditions: in methanol, 323.15 K
outcome.measure: solubility (mole fraction)
Answers are plain numbers.

Task: Suppose we examine the compound Cl.NC1CCSC1=O (racemic) ; what solubility (mole fraction) value has been reported?
Result: 0.0326

###

# recorded.conditions: in dichloromethane, 293.15 K
outcome.measure: solubility (mole fraction)

Task: Suppose we examine the molecule Cl.NC1CCSC1=O (racemic) ; what solubility (mole fraction) value has been reported?
Result: 0.000171

###

# recorded.conditions: in 2-butanone, 283.15 K
outcome.measure: solubility (mole fraction)
Numbers only.

Task: Suppose we examine the compound Cl.NC1CCSC1=O (racemic) ; what solubility (mole fraction) value has been reported?
Result: 0.000125

###

# recorded.conditions: in dichloromethane, 283.15 K
outcome.measure: solubility (mole fraction)

Task: Suppose we examine the molecule Cl.NC1CCSC1=O (racemic) ; what solubility (mole fraction) value has been reported?
Result: 6.4e-05

###

# recorded.conditions: in acetonitrile, 313.15 K
outcome.measure: solubility (mole fraction)
One number for each entry.

Task: Suppose we examine the compound Cl.NC1CCSC1=O (racemic) ; what solubility (mole fraction) value has been reported?
Result: 0.000175

###

# recorded.conditions: in ethanol, 313.15 K
outcome.measure: solubility (mole fraction)
One number for each entry.

Task: Suppose we examine the molecule Cl.NC1CCSC1=O (racemic) ; what solubility (mole fraction) value has been reported?
Result: 0.00627

###

# recorded.conditions: in isopropanol, 313.15 K
outcome.measure: solubility (mole fraction)
Answers are plain numbers.

Task: Suppose we examine the molecule Cl.NC1CCSC1=O (racemic) ; what solubility (mole fraction) value has been reported?
Result: 0.00154

###

# recorded.conditions: in 1,4-dioxane, 308.15 K
outcome.measure: solubility (mole fraction)
Give bare numbers.

Task: Suppose we examine the compound Cl.NC1CCSC1=O (racemic) ; what solubility (mole fraction) value has been reported?
Result: 0.000783

###

# recorded.conditions: in 2-butanone, 293.15 K
outcome.measure: solubility (mole fraction)
Give bare numbers.

Task: Suppose we examine the molecule Cl.NC1CCSC1=O (racemic) ; what solubility (mole fraction) value has been reported?
Result: 0.00021

###

# recorded.conditions: in ethanol, 303.15 K
outcome.measure: solubility (mole fraction)
Numbers only.

Task: Suppose we examine the molecule Cl.NC1CCSC1=O (racemic) ; what solubility (mole fraction) value has been reported?
Result: 0.00509

###

# recorded.conditions: in acetone, 283.15 K
outcome.measure: solubility (mole fraction)

Task: Suppose we examine the compound Cl.NC1CCSC1=O (racemic) ; what solubility (mole fraction) value has been reported?
Result: 0.000115

###

# recorded.conditions: in 2-butanone, 313.15 K
outcome.measure: solubility (mole fraction)
Answers are plain numbers.

Task: Suppose we examine the compound Cl.NC1CCSC1=O (racemic) ; what solubility (mole fraction) value has been reported?
Result: 0.000361

###

# recorded.conditions: in 2-butanone, 303.15 K
outcome.measure: solubility (mole fraction)
One number for each entry.

Task: Suppose we examine the compound Cl.NC1CCSC1=O (racemic) ; what solubility (mole fraction) value has been reported?
Result: 0.000307

###

# recorded.conditions: in acetone, 303.15 K
outcome.measure: solubility (mole fraction)
Numbers only.

Task: Suppose we examine the compound Cl.NC1CCSC1=O (racemic) ; what solubility (mole fraction) value has been reported?
Result: 0.00026

###

# recorded.conditions: in ethyl acetate, 313.15 K
outcome.measure: solubility (mole fraction)
Give bare numbers.

Task: Suppose we examine the compound Cl.NC1CCSC1=O (racemic) ; what solubility (mole fraction) value has been reported?
Result: 0.000385

###

# recorded.conditions: in isopropanol, 323.15 K
outcome.measure: solubility (mole fraction)
Give bare numbers.

Task: Suppose we examine the molecule Cl.NC1CCSC1=O (racemic) ; what solubility (mole fraction) value has been reported?
Result: 0.00187

###

# recorded.conditions: in 1,4-dioxane, 323.15 K
outcome.measure: solubility (mole fraction)
One number for each entry.

Task: Suppose we examine the compound Cl.NC1CCSC1=O (racemic) ; what solubility (mole fraction) value has been reported?
Result: 0.000995

###

# recorded.conditions: in acetonitrile, 283.15 K
outcome.measure: solubility (mole fraction)
One number for each entry.

Task: Suppose we examine the compound Cl.NC1CCSC1=O (racemic) ; what solubility (mole fraction) value has been reported?
Result: 4.5e-05

###

# recorded.conditions: in acetonitrile, 323.15 K
outcome.measure: solubility (mole fraction)
One number for each entry.

Task: Suppose we examine the compound Cl.NC1CCSC1=O (racemic) ; what solubility (mole fraction) value has been reported?
Result: 0.000212
